// provenance: a protein production outcome set (Wang et al. 2014)

assay: label from the status in PepcDB records
quantity measured: protein production

MSRDTVRPPCVHPGFARPLPARASLPFLGRVSPGDSSRRAGRDGRKWGMESGPAIFAGTVFALFGGGLLTWTVSRVRHRAPVAHDVNPVASATLAGLAAVSALVLGAWCFTHL : failed
MTIRRLTPTPRAVDWGLFGAVATLLATGVATIFAGIPSSAWIIDLHALSGVVLTLLLPVKLRRVFHRVAPSRLTGTRVLSVGLAAVTLGALGTGVWWIFGGTLDLGPWGLFHLHVALGLLVPPLLLVHLRARFYSPAQATCGGRRDVLRYAGLVTAGALLWRVQGPVNDALDTAGADRRYTGSREEGTDDGNRFPVTSWVADDPDPVDAADWSLSVAGRVAHEASYVAGDLSPDATESAVLDCTSGWYSGHEWQGVRVGDLLDAADPDDAAAWVQFRSITGYRWSLPLSEARDAVLATHVDGERLAHGHGYPLRLVAPGRRGFQWVKWVESVRVSKRRELGEWLAIFVSGL : failed
MRIGVIGTGTIATAVVHGIAGDGHAITVSERSAANAQALAAAYPNVRVASNQVVVEECDILTLGLMAEQAPEILGPLPFRADQQVITLMAGATLEQVAQMVAPARAAAIMMPFPSIAQGGSPIMMQGDADLVAALFGARNRIFAVRDAAEMAAYLCAQAVLSPVARMVDDAAGWLATRVSDPVQGEAFLRALVASSLADTDSASLIEALNTPGGYNQRLRLHMEGAGMGDSLRAGLDALETGA : failed

###

test: label from the status in PepcDB records
quantity measured: protein production

MMLITERRSPFYPNIQNVPPSVIRKLVKNKAITLIDVRQPWEYEDHHIPGSILLPLDYFKELFPLVLSKNNLVKNGVAIICEHANRSTWLVYTEPSLFKEVKVYNMLGGIELWMIMGYEIEKGMDDNGTLWYKLLTKNLGLEHHHHHH : failed
MMSQSERPDVAEIRVPFRDVDMNGQMFLASYISYAESVLASFWSSRPDVDDEPVYSPSKVSCFLHRPLHYDEPATFTATIDKIGVRSIGFLISIDTGEERAAEVEIIWQAHAPEDQSPASLPEETRDWLYRFLN : failed

###

experiment: label from the status in PepcDB records
quantity measured: protein production

MTTVIVANDLVGFGKVALTSSLLPIMSACQTEVLPLPTVLLSSHTGEFDNIYVRYLTVDMQGFCGQWKRLDFRVDGLVGGYFKSEEELGLVSQCLTKKRFLFLLDPIMGDNGRLYQGFDRDYVEAMKDFCQQADVIIPNLTEAALLTGSPYLEEGSYDMTTIENLLRNLSRLGPRKVILTGISFETEKIGLAYFDKETNQVIYRMRKRYQSHFYGSGDLLTAILSAGYFHNLDFLKVCDLALDFLNKVLLFTLSSGRPLKYGLCYEPLYRLFILEHHHHHH : not failed
IVMADWLKIRGTLKSWTKLWCVLKPGVLLIYKTQKNGQWVGTVLLNACEIIERPSKKDGFCFKLFHPLEQSIWAVKGPKGEAVGSITQPLPSSYLIIRATSESDGRCWMDALELALK : not failed
MSSNASTEKQHAGGEKTVKAEPQSTSSQKDSTDDYQPNSQVTDDRTLHKVGQTFSDDKGKAVLKDIKQVNKTYKIGDVELTVKEMKLIHLRPDYSMIDYFHELTHDEEFDFVKVFVDIKNTSTKKVNVAPIALMKTNTGETFDWNKDIYLEELNGELEGGAEKSGNLGFIVNASSGHAHDKAADAEKKTKEIKWIEITTSDVFDHNHKKISDAQKIKIKFLEHHHHHH : not failed
MFLVCGEALFDIFTRADDGGSLNRLGFDAIAGGSPFNVAIGLRRLGVEAAFFAGLSTDYLGRRLRAVLEQETVNAEHLIEFDAPTTLAMVAVGSDGSPTYSFRGDGCADRQLRLEHLPELDERVRGIHVGSFSLVVQPIADTLLALVARESARRLISLDPNVRLNPAPDIQRWRTQIAAFAEHAHLIKVSDEDLHLLYPDSDPQQIAEGWLGKRTQLVIVTRGTQGASVFTRQHGTWSVPAKTVVTADTVGAGDTFQAALLTFLSERQLDTPQGLSTLSRETLDEMLNFAVGAAALTCTKVGPDLPYRHQLG : failed
MTSASAALPQQPGRTKAFLRLVMIEHSVFALPFAYIAALTAMFQWDRNIHWVRLLLVTVAMVGLRTFAMAANRIIDREIDARNPRTAHRELVTGAMSVRHAWTGALVALVFFLGAAALLNPLCLALAPIAVIPMVVYPYGKRFTNFPQAILGLAQAMGPVGGWLAISGEWSWDAVILGLAVGVWIGGFDLIYACQDVETDREVGVMSVPARFGIQAAIWGARVCHAITTALLVWYAFATDAGAFFWFGLVIVAGAFLYEHSIVKPHDLSRLNRAFFSTNGFIGISLFVCALGDLLVRGLTV : failed

Prompt: Look up protein production for this sequence: MESMSMNHRVVRHCHNKKLQQSRYSPYSKENIISTIEKEMQKDEAIRLGVELSLFVAETMVLLSDNLRSMLLFCLWVLTNAECTYFTDPVVGRLHCVMLYVLETYIKPKNGVYLADVKSNQWEVFVKSCKSFVFGIRELDRIVLILGKRESSSCEVVKTSDFEHCNQELKKLEETLRSAKDVSEANGFAREVIKSNILCLWKSLFETSQPKVINLKNRTLDMFKPLLNQAREITCSSLIASLHI
Completion: failed

Prompt: Look at this sequence and give its reported protein production. STVVEIKSQDQFTQLTTTNAANKLIVLYFKAQWADPCKTMSQVLEAVSEKVRQEDVRFLSIDADEHPEISDLFEIAAVPYFVFIQNGTIVKEISAADPKEFVKSLEILSNASASLANNAKGPKSTSDEESSGSSDDEEDETEEEINARLVKLVQAAPVMLFMKGSPSEPKCGFSRQLVGILREHQIRFGFFDILRDENVRQSLKKFSDWPTFPQLYINGEFQGGLDIIKESIEEDPEYFQHALQ
Completion: not failed

Prompt: Data request, read-out protein production, for MLTDAHCRAAKAKDKLYRINDARGLYLEVKPNGVRAWRYRFKLCGKASWFALGDYPDLSLANAREKCDEARKLVRQGINPVQNRQLTKIKREMDASNTFETIAQEWLALKSWEPVTKSRRLGMLKRVVFPSIGKLPVRTITSAHVLDILNKTVKRGAPTVAAEAKRTMSGVFELAVATLRADTDPVWPVRKALPPNKTQHKAALTSGQVGNLLNAFDSHGGHFQTQMAFRLMWLTLTRANESVQARWDEFDLANGLWKIPKERMKARREHLLPLPRQAVSILTTMQPITGQSTYVFPNRDDRHKPMSDAAFRQALKKLGWATIYSPHGTRTTGSTRLNEMGYRSDAIEAQLAHAEPNSVRRAYNHAIYMVERAEMMQHWADKLDLWKKEASDAAI
Completion: failed

Prompt: May I ask what protein production has been recorded for MPFIYRRRVQFYETDAQGIVHHSNYFRYFEEARGEFLRSKGFPYSKMRDMGLEVVLLNAYCEYKKPLFYDDVFEVHLNLEELSRFTFTFSYIVFKEDIAVAKANTKHCMVKNGKIVSIPKEVLEVLKD ?
Completion: not failed

Prompt: # lookup: protein production of ENGRYEYIVIGSEAAGVGLVRELTAAGKKVLAVDKSKEKIELLEDEGFDAVIADPTDESFYRSLDLEGVSAVLITGSDDEFNLKILKALRSVSDVYAIVRVSSPKKKEEFEEAGANLVVLVADAVKQAFMDKIKKMETL
Completion: not failed

Prompt: Entry MGRLSGKTILVTGAASGIGRAALDLFAREGASLVAVDREERLLAEAVAALEAEAIAVVADVSDPKAVEAVFAEALEEFGRLHGVAHFAGVAHSALSWNLPLEAWEKVLRVNLTGSFLVARKAGEVLEEGGSLVLTGSVAGLGAFGLAHYAAGKLGVVGLARTLALELARKGVRVNVLLPGLIQTPMTAGLPPWAWEQEVGASPLGRAGRPEEVAQAALFLLSEESAYITGQALYVDGGRSIVGPPGLPPGFGPKGGERHAHVL has what protein production?
Completion: not failed

Prompt: Please report the recorded protein production for MSLATEGNGKVIHLTKAEFLAKVYNFEKNPEEWKYEGDKPAIVDFYADWCGPCKMVAPILDELAKEYDGQIVIYKVDTEKEQELAGAFGIRSIPSILFIPMEGKPEMAQGAMPKASFKKAIDEFLLKKEGHHHHHH .
Completion: not failed

###

assay: label from the status in PepcDB records
quantity measured: protein production

MTKSVDTLLIPGPIILSGAVQKALDVPSLGHTSPEFVSIFQRVLKNTRAVFKSAAASKSQPFVLAGSGTLGWDIFASNFILSKAPNKNVLVVSTGTFSDRFADCLRSYGAQVDVVRPLKIGESVPLELITEKLSQNSYGAVTVTHVDTSTAVLSDLKAISQAIKQTSPETFFVVDAVCSIGCEEFEFDEWGVDFALTASQKAIGAPAGLSISLCSSRFMDYALNDSKNGHVHGYFSSLRRWTPIMENYEAGKGAYFATPPVQLINSLDVALKEILEEGLHKRWDLHREMSDWFKDSLVNGLQLTSVSRYPSNMSAHGLTAVYVADPPDVIAFLKSHGVVIAGGIHKDIGPKYIRIGHMGVTACNKNLPYMKNCFDLIKLALQRKK : not failed
MNDFKNQWLRKRTFAIPASRLTGRLTTLKSDVPAADSLFWKLWNGSLDTAVQVLQTDYFKGIAAGTLDPNAYGSLMVQDGYYCFRGRDDYATAATCAQDETLREFFKAKAKSYDEYNETYHQTWHLREASGLIPGTDIKDYADYEAYVAGSLASPYMCVVMLPCEYLWPWIANFLDGYTPTNSLYRFWIEWNGGTPNGAYQMGNMLEQYRDKIDEDKAVEIFNTAMNYELKVFTSSTILTTIENGK : not failed
MSQDLIRAAFEKRLSDWAKARTPALPVAWQNTKFTPPAAGVYLRAYVMPAATISRDAAGDHRQYRGVFQVNVVMPIGDGSRSAEQVAAELDALFPVNLVMQSGGLAVRVRTPISNGQPTTGDADHTVPISLGYDVQFYPE : not failed
